For each of the compounds below, state its IC50 in zebrafish larvae.
System: zebrafish larvae
assay-procedure: Toxicity in zebrafish larvae (MTC / IC50)
Type: in vivo
condition-description: exposed 3 days post fertilization, monitored 48 h
Description: For toxicity screening, zebrafish larvae were exposed three days post fertilization and monitored for 48 h until five days post fertilization. All malformations and pathophysiological phenotypes were noted and used to determine the inhibitory concentration (IC50) of the respective derivative against zebrafish larvae. The selectivity index (SI) was then calculated using the IC50 and the MIC of either S. aureus or P. falciparum 3D7.
Supply the numeric figure in µM, leaving out any unit text.

Input: Indicate its recorded IC50 in zebrafish larvae; the compound in question is CC1=CC(C)C2C(C=CC3C(C)C=CC=CC(C)OC(=O)CC(=O)C(Cl)=C(O)C32)C1 (centres unmarked)
Output: 33.24

Input: Kindly indicate its recorded IC50 in zebrafish larvae. Item: CC1=CC(C)C2C(C=CC3C(C)C=CC=CC(C)OC(=O)C(C)C(=O)CC(=O)C32)C1 (stereo not drawn) [dehalogenil-2′Epi]
Output: 38.46

Input: Please give the documented IC50 in zebrafish larvae of CC1=C[C@@H](C)[C@H]2[C@@H]3C(=O)C(Cl)(Cl)C(=O)[C@H](C)C(=O)O[C@@H](C)/C=C/C=C\[C@@H](C)[C@@H]3C=C[C@@H]2C1 [ChA, reference compound]
Output: 1.09

Input: Determine its reported IC50 in zebrafish larvae: CC1=CC(C)C2C(C=CC3C(C)C=CC=CC(C)OC(=O)C(C)C(=O)CC(=O)C32)C1 (centres unmarked) [dehalogenil]
Output: 27.4

Input: Specify reported IC50 in zebrafish larvae for the compound shown: CC1=CC(C)C2C(C=CC3C(C)C=CC=CC(C)OC(=O)C(C)(C)C(=O)C(Cl)=C(O)C32)C1 (centres unmarked)
Output: 12.31

Input: Query IC50 in zebrafish larvae for CC1C=CC=CC(C)C2C=CC3CC4(C)OC4C(C)C3C2C(=O)CC(=O)C(C)C(=O)O1 (centres unmarked) [Dehalogenil-Epo1]
Output: 9.85

Input: Given the compound CC1=CC(C)C2C(C=CC3C(C)C=CC=CC(C)OC(=O)CC(=O)CC(=O)C32)C1 (centres unmarked) , write its reported IC50 in zebrafish larvae.
Output: 27.03

Input: State its IC50 in zebrafish larvae for this compound: CC1C=CC=CC(C)C2C=CC3CC4(C)OC4C(C)C3C2C(=O)CC(=O)C(C)C(=O)O1 (centres unmarked) [Dehalogenil-Epo2]
Output: 1.22
